Read-out: Transforming growth factor beta 1 (TGFb1), TGFB1 (gene 7040)
Experiment: BSK_BE3C_TGFb1: BioMAP Diversity Plus: BE3C Assay for Transforming growth factor beta 1 (TGFb1) Biomarker Activity (AID 2283036)
Details: primary human bronchial epithelial cells; actives raise or lower the signal
Activity calls are given as the source filed them. The calls were made as follows: active = hit-call score of the fitted dose curve at least 0.9, where 1 is the maximum; inactive = score below 0.9.
Hi! Could you answer with just one of these? T = active, F = inactive

Please review the entries below; each comes with its answer.
{"compound": "Cc1ccc([N+](=O)[O-])cc1", "cat": "F"}
{"compound": "C1=Cc2cccc3cccc1c23", "cat": "F"}
{"compound": "ClC1=C(Cl)C2(Cl)C3C(Cl)C=CC3C1(Cl)C2(Cl)Cl (stereo not given)", "cat": "T"}
{"compound": "CCCCC(CC)COC(=O)c1ccc(C(=O)OCC(CC)CCCC)c(C(=O)OCC(CC)CCCC)c1 (stereo not given)", "cat": "F"}

Prompt line: Per the records of this test, what outcome belongs to `CNC(=O)Oc1cccc2c1OC(C)(C)C2` ?
Response line: F

Prompt line: Test call, this compound: C[N+](C)(C)CC1CO1 (stereo not given)
Response line: F

Prompt line: Field: outcome | Entry: `[O-][Cl+]O`
Response line: F

Prompt line: Outcome logged for `O=C(N[C@H](c1ccccc1)[C@@H]1CN2CCC1CC2)c1c(Cl)ccc(C(F)(F)F)c1Cl` in this assay:
Response line: T

Prompt line: Per the assay record, what outcome was assigned to `Clc1ccccc1Cl` ?
Response line: F

Prompt line: What is the recorded call for this compound in the test? `C[C@]12C=CC3=C4CCC(=O)C=C4CC[C@H]3[C@@H]1CC[C@@H]2O`
Response line: F

Prompt line: Each compound tested received a call. Report the one for `CC(C)N(Cc1ccccc1)C(=O)C(C)(C)C` .
Response line: F

Prompt line: Which result was noted for this compound in the test: `CCCSC(=O)N(CCC)CCC`
Response line: F

* * *

Read-out: Intercellular Adhesion Molecule 1 (ICAM1), ICAM1 (gene 3383)
Experiment: BSK_KF3CT_ICAM1: BioMAP Diversity Plus: KF3CT Assay for Intercellular Adhesion Molecule 1 (ICAM1) Biomarker Activity (AID 2283067)
Conditions: primary human keratinocytes with fibroblasts; actives raise or lower the signal
Active and inactive are the calls of the source. The calls were made as follows: active = hit-call score of the fitted dose curve at least 0.9, where 1 is the maximum; inactive = score below 0.9.
Bench note: report the call from active, inactive

Some solved cases for reference:
{"compound": "c1ccc(NNc2ccccc2)cc1", "cat": "inactive"}
{"compound": "OCCCBr", "cat": "inactive"}

API: the following record is the query input.
Prompt line: What call does the record list for `Cc1ccc(N)cc1` ?
Response line: inactive

* * *

Read-out: flavin-containing dimethylaniline monooxygenases 3 (FMO3), FMO3 (gene 2328)
Experiment: LTEA_HepaRG_FMO3: Life Technologies and Expression Analysis (LTEA) Assay for flavin-containing dimethylaniline monooxygenases 3 (FMO3) using HepaRG (AID 2283453)
Conditions: mRNA level, 48 h; actives raise or lower the signal
Calls of active or inactive are those of the source. The calls were made as follows: active = hit-call score of the fitted dose curve at least 0.9, where 1 is the maximum; inactive = score below 0.9.
# valid calls are active, inactive; nothing else

Prompt line: Test call for this compound, please: `CC(C)(C)OOC(C)(C)CCC(C)(C)OOC(C)(C)C`
Response line: inactive

Prompt line: What outcome does the record of this test show for `Cc1cc(N=Nc2ccccc2C)ccc1N` ?
Response line: active

Prompt line: Call for entry `Nc1ccc(Cl)cc1N` :
Response line: active

Prompt line: State the result this test recorded for `CCCCCOC(=O)c1ccccc1C(=O)OCCCCC` .
Response line: inactive

Prompt line: // param item: ClC1=C(Cl)C2(Cl)C3C(Cl)C=CC3C1(Cl)C2(Cl)Cl (centres undefined) ; yields the recorded call
Response line: inactive

Prompt line: Recorded test call requested for `Brc1ccc(Oc2ccccc2)cc1`
Response line: inactive

Prompt line: Which outcome was assigned to `O=C(Nc1ccccc1)c1ccccc1I` in this test?
Response line: active

Prompt line: Please share the test call associated with `Cc1ccc(N)c(N)c1` .
Response line: inactive

Prompt line: Please let me know the test result on file for `Cn1cc(-c2ccccc2)c(=O)c(-c2cccc(C(F)(F)F)c2)c1` .
Response line: inactive

Prompt line: # fetch the recorded call for `Oc1ccccc1Cl` here
Response line: inactive

Prompt line: Could you please tell me the result logged for `O=C1CCCO1` in this assay?
Response line: inactive

Prompt line: Could you check what this test reported for `CC(C)(C)OOC(=O)c1ccccc1` ?
Response line: inactive

Prompt line: // param item: `CCCCCCCCn1sccc1=O` ; yields the recorded call
Response line: active

Prompt line: Per the assay record, what outcome was assigned to `Nc1ccc([N+](=O)[O-])cc1` ?
Response line: inactive

Prompt line: Status in this test for CCCCCCCCCCCCCN1CC(C)OC(C)C1 (centres undefined) ?
Response line: inactive

Prompt line: Hello, I am checking results. What call was entered for `c1ccc(NNc2ccccc2)cc1` ?
Response line: inactive

Prompt line: Outcome? `O=C(N[C@H](c1ccccc1)[C@@H]1CN2CCC1CC2)c1c(Cl)ccc(C(F)(F)F)c1Cl`
Response line: active

Prompt line: What was the test verdict on `COc1cc(C=O)cc2c1[C@H](COC(N)=O)[C@]1(OC(C)=O)ON2C[C@H]2[C@@H]1N2C(C)=O` ?
Response line: active

Prompt line: Query: recorded result category for `ClCCOCCCl` in this test
Response line: inactive

* * *

Assay: CCTE_Simmons_CellTiterGLO_HEK293T: Viability Assessment in CCTE's Assays for Thyroperoxidase (TPO) Inhibition, Simmons Lab (AID 2283665)
Records with an inconclusive call do not appear. Active and inactive are the calls of the source. Rule for the calls: active = hit-call score of the fitted dose curve at least 0.9, where 1 is the maximum; inconclusive = response in the unintended direction; inactive = score below 0.9.
Hi there, use one of these labels in your reply, thanks! true (1) (active), false (0) (inactive)

{"smilesRepr": "Oc1ccc2ccc3cccc4ccc1c2c34", "cat": "true (1)"}
{"smilesRepr": "CO[C@@H]1[C@H](OC(=O)NC(=O)CCl)CC[C@]2(CO2)[C@H]1[C@@]1(C)O[C@@H]1CC=C(C)C", "cat": "false (0)"}
{"smilesRepr": "Oc1ccccc1Cl", "cat": "false (0)"}
{"smilesRepr": "Cc1cccc(N)c1N", "cat": "true (1)"}

Prompt line: Any idea what this test logged for `Nc1ccc(Cl)cc1N` ?
Response line: false (0)

* * *

Assay: Tanguay_ZF_120hpf_AXIS_legacy: (Legacy) Oregon State University Tanguay Lab 120 Hour Post-fertilization zebrafish Assay for Body Axis Malformation (AID 2283635)
Inconclusive results are not listed. Active and inactive are the calls of the source. The calls were made as follows: active = hit-call score of the fitted dose curve at least 0.9, where 1 is the maximum; inconclusive = response in the unintended direction; inactive = score below 0.9.
Classes to choose from: class 1 = active, class 0 = inactive

{"compound": "CCCCCCCCn1sccc1=O", "cat": "class 0"}
{"compound": "CCCSC(=O)N(CCC)CCC", "cat": "class 0"}
{"compound": "CCCCC(CC)COC(=O)c1ccc(C(=O)OCC(CC)CCCC)c(C(=O)OCC(CC)CCCC)c1 (centres undefined)", "cat": "class 0"}
{"compound": "Clc1ccc(C(c2ccc(Cl)cc2)C(Cl)Cl)cc1", "cat": "class 0"}
{"compound": "Nc1ccc(Cc2ccc(N)cc2)cc1", "cat": "class 0"}
{"compound": "C=CCc1ccc2c(c1)OCO2", "cat": "class 0"}

Prompt line: Which outcome was assigned to `[Cl-].[Cl-].[Hg+2]` in this test?
Response line: class 1

Prompt line: Please indicate how the test categorized `[As]#[In]` .
Response line: class 0

Prompt line: Assay result, entry `Clc1ccc(Cl)c(Cl)c1` — outcome?
Response line: class 0

Prompt line: Entry `CCCCCCCCOC(=O)c1ccc(C(=O)OCCCCCCCC)c(C(=O)OCCCCCCCC)c1` : call = ?
Response line: class 0

Prompt line: How was `CCOC(=O)[C@]1(c2ccccc2)Oc2ccccc2[C@@H]1N` classified in this test?
Response line: class 0

Prompt line: Per the assay record, what outcome was assigned to `Nc1ccc(Oc2ccc(N)cc2)cc1` ?
Response line: class 0

Prompt line: // param item: `CN(C)[C@@H]1C(=O)C(C(N)=O)=C(O)[C@@]2(O)C(=O)C3=C(O)c4c(O)cccc4[C@@](C)(O)[C@H]3C[C@@H]12` ; yields the recorded call
Response line: class 0

Prompt line: What call does the record list for `OCCCBr` ?
Response line: class 0

* * *

Read-out: Cytochrome P450 (CYP1A1), CYP1A1 (gene 1543)
Experiment: LTEA_HepaRG_CYP1A1: Life Technologies and Expression Analysis (LTEA) Assay for Cytochrome P450 (CYP1A1) using HepaRG (AID 2283454)
Details: mRNA level, 48 h; actives raise or lower the signal
The source made the active and inactive calls. How the source made its calls: active means hit-call score of the fitted dose curve at least 0.9, where 1 is the maximum; inactive means score below 0.9.
I would appreciate it if you answered using one of these outcomes: true (active), false (inactive)

{"compound": "C1=Cc2cccc3cccc1c23", "cat": "true"}
{"compound": "ClC1=C(Cl)[C@]2(Cl)[C@H]3[C@H]([C@@H]4C=C[C@H]3C4)[C@@]1(Cl)C2(Cl)Cl", "cat": "true"}
{"compound": "O=C(O)C1C2CCC(O2)C1C(=O)O (configuration not stated)", "cat": "true"}
{"compound": "CC(C)N(Cc1ccccc1)C(=O)C(C)(C)C", "cat": "true"}
{"compound": "CN(C)[C@@H]1C(=O)C(C(N)=O)=C(O)[C@@]2(O)C(=O)C3=C(O)c4c(O)cccc4[C@@](C)(O)[C@H]3C[C@@H]12", "cat": "true"}
{"compound": "Cc1ccc([N+](=O)[O-])cc1", "cat": "true"}

Query compound follows.
Prompt line: Outcome logged for `CO[C@@H]1[C@H](OC(=O)NC(=O)CCl)CC[C@]2(CO2)[C@H]1[C@@]1(C)O[C@@H]1CC=C(C)C` in this assay:
Response line: true
